Reference for the values: patent US10093630B2

Biological target: ABHD6 (Mus musculus, UniProt Q8R2Y0)
Construct: Proteomes (mouse brain membrane fraction or cell lysates); from tissue; host or cells: mouse brain membrane fraction (or cell lysates, not specified)
Sequence (Q8R2Y0 1-336): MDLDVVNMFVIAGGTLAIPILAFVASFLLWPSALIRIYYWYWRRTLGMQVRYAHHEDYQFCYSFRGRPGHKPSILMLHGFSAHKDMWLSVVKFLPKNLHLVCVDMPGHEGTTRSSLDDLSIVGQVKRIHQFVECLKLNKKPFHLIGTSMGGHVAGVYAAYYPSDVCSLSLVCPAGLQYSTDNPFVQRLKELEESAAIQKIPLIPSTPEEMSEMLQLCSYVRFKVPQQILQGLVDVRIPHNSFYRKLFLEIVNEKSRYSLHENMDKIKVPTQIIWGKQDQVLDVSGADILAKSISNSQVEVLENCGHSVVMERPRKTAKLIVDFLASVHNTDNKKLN
Assay: In vitro competitive activity-based protein profiling (gel-based, FP-Rh or HT-01 probe)
Type: biochemical
Settings: 1 μM inhibitor; read-out: % Inhibition at 1 μM, C = ABHD6
Value type: inhibition at 1 µM

Consider the reported inhibition at 1 µM for these compounds:
Structure smiles | inhibition at 1 µM
O=C(N1CCN(Cc2ccccc2)CC1)n1cc(Cl)cn1 | > 75%
Cc1cnn(C(=O)N2CCCCC2)c1 | 25 to 75%
O=C(c1cnn(C(=O)N2CCN(Cc3cncnc3)CC2)c1)N1CCOCC1 | < 25%
O=C(N1CCN(Cc2ccc(Oc3ccccc3)cc2)CC1)n1cccn1 | > 75%
N#Cc1cnn(C(=O)N2CCN(Cc3ccc(Oc4ccccc4)cc3)CC2)c1 | > 75%

In the following, a different compound is considered.
For ABHD6 (Mus musculus, UniProt Q8R2Y0), give the measured inhibition at 1 µM of the entry O=C(N1CCN(C(c2ccc(Cl)cc2)c2ccc(Cl)cc2)CC1)n1cc(F)cn1
< 25%
